tested on: NCI-H196 complex spheroid growth, percent test/control; test: Anticancer human tumor NCI-H196 cell line growth inhibition [AhR]; conditions: second compound 3.16 µM; first compound 0.316 µM; stronger effect = lower value;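 further: seven days of drug exposure starting three days after plating; 100% = DMSO vehicle control wells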
Consider the following compounds; for each one, report its viability, T/C.
Answers are plain numbers, in %.

O=C(C=Cc1cccc(S(=O)(=O)Nc2ccccc2)c1)NO + Cc1cncc(-c2nc(NCCc3c[nH]c4ccccc34)c3ncn(C(C)C)c3n2)c1 : 96.7
O=C(C=Cc1cccc(S(=O)(=O)Nc2ccccc2)c1)NO + CC(CO)NC(=O)c1cc(-c2ccc(Cl)cc2)nn(-c2cnn(C)c2)c1=O : 102
CC1(C)CCC(CN2CCN(c3ccc(C(=O)NS(=O)(=O)c4ccc(NCC5CCOCC5)c([N+](=O)[O-])c4)c(Oc4cnc5[nH]ccc5c4)c3)CC2)=C(c2ccc(Cl)cc2)C1 + Cc1cncc(-c2nc(NCCc3c[nH]c4ccccc34)c3ncn(C(C)C)c3n2)c1 : 105

Would you mind listing viability, T/C for each of the following compounds?
1. NS(=O)(=O)OCC1CC(n2ccc3c(NC4CCc5ccccc54)ncnc32)CC1O (configuration not stated) + Cc1cncc(-c2nc(NCCc3c[nH]c4ccccc34)c3ncn(C(C)C)c3n2)c1
2. Nc1ncn(C2CC(O)C(CO)O2)c(=O)n1 (configuration not stated) + Cc1ccccc1N=Nc1ccc(NC(=O)c2ccnn2C)c(C)c1
3. CC1COCCN1c1cc(C2(S(C)(=N)=O)CC2)nc(-c2ccnc3[nH]ccc23)n1 (configuration not stated) + CC(CO)NC(=O)c1cc(-c2ccc(Cl)cc2)nn(-c2cnn(C)c2)c1=O

Data returned:
[66.8, 92.5, 106]
